# target_system: full-length beta-Catenin (Uniprot ID P35222) (Homo sapiens (Human)) (UniProt P35222)
# measurement_notes: fluorescence polarization competition; full-length beta-catenin, competitor 5FAM-TCF4(10-53) probe
Starred links: 1 amine or outer side, 2 acyl side, 3 side chain; linkers in the order of their positions; H or OH if unused. Positions of bridges follow the written chain, without caps; N, C: chain ends. Non-standard residues stand in square brackets, D forms with d. Primed or numbered codes have the meaning given here. PyrS2″ = (S)-3-amino-1-((pent-4-en-1-yloxy)carbonyl)pyrrolidine-3-carboxylic acid (stapling residue), C=CCCCOC(=O)N1CC[C@@](N[*:1])(C(=O)[*:2])C1; B5(4) = 2,2-bis(4-pentenyl)glycine = 2-amino-2-(pent-4-en-1-yl)hept-6-enoic acid (stitching residue), C=CCCCC(CCCC=C)(N[*:1])C(=O)[*:2]; Phe(2-Cl) = N[C@@H](Cc1ccccc1Cl)C(=O)O; Phe(3-Me) = Cc1cccc(C[C@H](N)C(=O)O)c1; Bta = N[C@@H](Cc1csc2ccccc12)C(=O)O; αAllylPro = C=CC[C@@]1(C(=O)O)CCCN1; hPhe = N[C@@H](CCc1ccccc1)C(=O)O; tBuAla = CC(C)(C)C[C@H](N)C(=O)O; S8 = C=CCCCCCC[C@](C)(N)C(=O)O
The following binders are listed with their measured pIC50 values.
As a rule, pIC50 stands for the negative log10 of the concentration, concentration in M.

binder	pIC50
Ac-[αAllylPro]DA[B5(4)]DEAAFN[S8][hPhe][Bta]Q-NH2 (staple 1-4, 4-11; also: staple isomer composition, later-eluting HPLC peak) [I-443]	5.67

## Task // returns reported pIC50 for input Ac-[αAllylPro]DA[B5(4)]DEAA[Phe(3-Me)]N[S8]F[Bta]Q-NH2 (staple 1-4, 4-11) [I-458]
## Result 6.99

## Task // returns reported pIC50 for input Ac-[αAllylPro]D[tBuAla][B5(4)]DTAAFT[PyrS2″][Phe(2-Cl)][Bta]Q-NH2 (staple 1-4, 4-11) [I-1168]
## Result 7.60
